This collection of values is drawn from patent US20230272056A1.

TARGET OR TEST SYSTEM: T1, human LAP-TGFB1 Fc fusion (human)
T1 construct: also called human LAP-TGFβ1-Fc; human LAP-TGFβ-Fc isoform 1
T1 sequence (chain, as listed by the source limits assumed): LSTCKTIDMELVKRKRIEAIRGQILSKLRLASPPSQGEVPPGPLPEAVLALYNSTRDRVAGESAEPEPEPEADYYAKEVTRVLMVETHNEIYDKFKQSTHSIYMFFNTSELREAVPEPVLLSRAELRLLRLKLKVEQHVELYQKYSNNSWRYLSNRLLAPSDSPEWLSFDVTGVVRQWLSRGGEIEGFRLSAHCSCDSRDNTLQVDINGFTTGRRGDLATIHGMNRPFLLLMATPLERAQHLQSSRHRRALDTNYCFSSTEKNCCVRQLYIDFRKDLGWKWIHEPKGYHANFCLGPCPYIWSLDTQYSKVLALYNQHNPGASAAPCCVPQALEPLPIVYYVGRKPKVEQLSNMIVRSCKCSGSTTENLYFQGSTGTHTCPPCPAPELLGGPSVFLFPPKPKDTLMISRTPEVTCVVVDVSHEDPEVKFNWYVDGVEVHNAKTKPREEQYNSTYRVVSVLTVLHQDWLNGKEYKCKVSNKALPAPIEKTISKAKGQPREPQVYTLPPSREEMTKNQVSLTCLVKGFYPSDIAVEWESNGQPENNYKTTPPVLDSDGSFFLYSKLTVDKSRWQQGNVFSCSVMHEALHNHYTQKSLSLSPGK
TEST: SPR pH 7.4, antigen captured on Fab 54BLH
Text: A Series S C1 sensor chip (Cytiva, catalog BR100535) was immobilized with low densities of high affinity Fab 54BLH on a Biacore T200 instrument with 1×HBS-EP+(Teknova, catalog H8022). This surface served as a monovalent capture surface for a low-density layer of heterodimer human LAP-TGFβ1 complex leaving the second binding site exposed for monovalent kinetic binding analysis with both mAbs and Fabs. […]
READOUT NAME: pKd
Keep it numeric: pKd is minus log10 of the concentration in mol/L.

Prompt line: Returns the measured pKd for the input binder. Input: 67BLH (Fab, V domains shown, also called 19BLM Fab) VH: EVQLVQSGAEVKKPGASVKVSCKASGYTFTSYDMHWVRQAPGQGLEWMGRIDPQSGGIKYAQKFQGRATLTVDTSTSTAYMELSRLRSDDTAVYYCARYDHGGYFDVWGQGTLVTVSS VL: DIQMTQSPSSLSASVGDRVTITCRASQDIYNYLNWYQQKPGKAVKLLIYYTSYLETGVPSRFSGSGSGTDYTLTISSLQPEDFATYFCQQGDTLPWTFGQGTKLEIK
Response line: 8.63

Prompt line: Returns the measured pKd for the input binder. Input: 18BLM (antibody, human IgG1, kappa, L234A L235A, V domains shown, IgG1 L234A L235A D265S/kappa; also called 81BLH; 54BMD) VH: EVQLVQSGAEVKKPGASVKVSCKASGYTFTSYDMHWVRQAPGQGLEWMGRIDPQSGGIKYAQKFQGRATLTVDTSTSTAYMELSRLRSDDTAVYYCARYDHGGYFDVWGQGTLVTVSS VL: DIQMTQSPSSLSASVGDRVTITCRASQDIYNYLNWYQQKPGKAVKLLIYYTSRLETGVPSRFSGSGSGTDYTLTISSLQPEDFATYFCQQGDTLPWTFGQGTKLEIKR
Response line: 9.02

Prompt line: Returns the measured pKd for the input binder. Input: 54BLH (Fab, V domains shown, also called 06BLM Fab) VH: EVQLVQSGAEVKKPGASVKVSCKASGYTFTSYDMHWVRQAPGQGLEWMGRIDPQSGGIRYAQKFQGRATLTVDTSTSTAYMELSRLRSDDTAVYYCARWDYGGQFDVWGQGTLVTVSS VL: DIQMTQSPSSLSASVGDRVTITCRASQDIYNYLNWYQQKPGKAVKLLIYYTSILETGVPSRFSGSGSGTDYTLTISSLQPEDFATYFCQQGDTLPWTFGQGTKLEIK
Response line: 11.32

Prompt line: Returns the measured pKd for the input binder. Input: 12BLM (antibody, human IgG1, kappa, L234A L235A, V domains shown, IgG1 L234A L235A D265S/kappa; also called 75BLH; 48BMD) VH: EVQLVQSGAEVKKPGASVKVSCKASGYTFTSYDMHWVRQAPGQGLEWMGRIDPQSGGVKYAQKFQGRATLTVDTSTSTAYMELSRLRSDDTAVYYCARWDYGGYFDVWGQGTLVTVSS VL: DIQMTQSPSSLSASVGDRVTITCRASQDIYNYLNWYQQKPGKAVKLLIYYTSVLETGVPSRFSGSGSGTDYTLTISSLQPEDFATYFCQQGDELPWTFGQGTKLEIKR
Response line: 10.95

Prompt line: Returns the measured pKd for the input binder. Input: 15BLM (antibody, human IgG1, kappa, L234A L235A, V domains shown, IgG1 L234A L235A D265S/kappa; also called 78BLH; 51BMD) VH: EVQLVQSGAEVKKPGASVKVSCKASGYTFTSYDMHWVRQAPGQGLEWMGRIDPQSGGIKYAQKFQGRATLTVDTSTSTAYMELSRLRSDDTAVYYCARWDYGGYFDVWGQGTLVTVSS VL: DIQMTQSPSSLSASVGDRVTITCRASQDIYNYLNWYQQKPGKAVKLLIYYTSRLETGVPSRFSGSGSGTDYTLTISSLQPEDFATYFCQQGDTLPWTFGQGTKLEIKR
Response line: 10.06
